target.or.test.system: human Cat K (Homo sapiens (Human), UniProt P43235)
Sequence (P43235 115-329): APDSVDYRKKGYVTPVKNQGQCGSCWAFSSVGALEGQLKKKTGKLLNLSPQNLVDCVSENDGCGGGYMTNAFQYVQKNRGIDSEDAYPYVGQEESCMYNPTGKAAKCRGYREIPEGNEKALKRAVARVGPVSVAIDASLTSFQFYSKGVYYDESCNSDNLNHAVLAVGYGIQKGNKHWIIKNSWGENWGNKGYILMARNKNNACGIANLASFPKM
Hi! Just check whether IC50 is below 40 nM. Below gives Satisfied, equal or above gives Not satisfied.

molecule | group
CCC[C@H](NC(=O)[C@@H]1C[C@@H](S(=O)(=O)c2ccc(Cl)cc2Cl)CN1C(=O)C1(c2ccc(Cl)cc2)CC1)C(=O)C(=O)NC1CC1 [Example 42] | Satisfied
CC[C@H](NC(=O)[C@@H]1C[C@@H](S(=O)(=O)c2ccc(C)cc2C)CN1C(=O)OC(C)(C)C)C(=O)C(=O)NC1CC1 [Example 1] | Not satisfied
CCC[C@H](NC(=O)[C@@H]1C[C@@H](S(=O)(=O)c2ccccc2C(F)(F)F)CN1C(=O)C1(c2ccc(Cl)cc2)CC1)C(=O)C(=O)NC1CC1 [Example 22] | Not satisfied
CC(C)C[C@H](NC(=O)[C@@H]1C[C@@H](S(=O)(=O)c2ccccc2Cl)CN1C(=O)C1(c2ccc(Cl)cc2)CC1)C(=O)C(=O)NC1CC1 [Example 29] | Not satisfied
CC[C@H](NC(=O)[C@@H]1C[C@@H](S(=O)(=O)c2ccc(F)cc2C(F)(F)F)CN1c1cc(C)nn1C1CCC1)C(=O)C(=O)NC1CC1 [Example 4] | Not satisfied
CCCCNC(=O)C(=O)[C@H](CC)NC(=O)[C@@H]1C[C@@H](S(=O)(=O)c2ccccc2Cl)CN1C(=O)C1(c2ccc(Cl)cc2)CC1 [Example 31] | Satisfied

---

// each record: one item and its IC50 for human Cat L (Homo sapiens (Human))

compound | target.or.test.system | IC50 / nM
CCCC(C)NC(=O)C(=O)[C@H](CC)NC(=O)[C@@H]1C[C@@H](S(=O)(=O)c2ccccc2Cl)CN1C(=O)C1(c2ccc(Cl)cc2)CC1 (some centres unmarked) | human Cat L (Homo sapiens (Human)) | 16.5
CC[C@H](NC(=O)[C@@H]1C[C@@H](S(=O)(=O)c2ccccc2Cl)CN1C(=O)C1(c2ccc(Cl)cc2)CC1)C(=O)C(=O)NCCc1ccc2ccccc2c1 | human Cat L (Homo sapiens (Human)) | 13
CCC[C@H](NC(=O)[C@@H]1C[C@@H](S(=O)(=O)c2ccccc2Cl)CN1C(=O)C1(c2ccc(Cl)cc2)CC1)C(=O)C(=O)NC(C)C | human Cat L (Homo sapiens (Human)) | 11.7
CC[C@H](NC(=O)[C@@H]1C[C@@H](S(=O)(=O)c2ccccc2Cl)CN1C(=O)C1(c2ncc(Cl)cc2F)CC1)C(=O)C(=O)NC1CC1 | human Cat L (Homo sapiens (Human)) | 9.8
CCCCNC(=O)C(=O)[C@H](CC)NC(=O)[C@@H]1C[C@@H](S(=O)(=O)c2ccccc2Cl)CN1C(=O)C1(c2ncc(Cl)cc2F)CC1 | human Cat L (Homo sapiens (Human)) | 6.1
CC[C@H](NC(=O)[C@@H]1C[C@@H](S(=O)(=O)c2ccccc2Cl)CN1C(=O)C1(c2ccc(Cl)cc2)CC1)C(=O)C(=O)NCc1cccc2ccccc12 | human Cat L (Homo sapiens (Human)) | 9.4
CCC[C@H](NC(=O)[C@@H]1C[C@@H](S(=O)(=O)c2ccccc2Cl)CN1C(=O)C1(c2ccc(Br)cc2)CC1)C(=O)C(=O)NC1CC1 | human Cat L (Homo sapiens (Human)) | 5.9
CC[C@H](NC(=O)[C@@H]1C[C@@H](S(=O)(=O)c2ccccc2Cl)CN1C(=O)C1(c2ccc(Cl)cc2F)CC1)C(=O)C(=O)NC1CC1 | human Cat L (Homo sapiens (Human)) | 11.3
CC[C@H](NC(=O)[C@@H]1C[C@@H](S(=O)(=O)c2ccccc2Cl)CN1C(=O)C1(c2ccc(I)cc2)CC1)C(=O)C(=O)NC1CC1 | human Cat L (Homo sapiens (Human)) | 10.1
CC[C@H](NC(=O)[C@@H]1C[C@@H](S(=O)(=O)c2ccc(Cl)cc2Cl)CN1C(=O)C1(c2ccc(Cl)cc2)CC1)C(=O)C(=O)NC1CC1 | human Cat L (Homo sapiens (Human)) | 10.6
CCC[C@H](NC(=O)[C@@H]1C[C@@H](S(=O)(=O)c2ccccc2Cl)CN1C(=O)C1(c2ccc(Cl)cc2)CC1)C(=O)C(=O)NCC | human Cat L (Homo sapiens (Human)) | 13.6
